# target: OsWOX13 (Oryza sativa, UniProt Q5QMM3 1-267)
# Sequence: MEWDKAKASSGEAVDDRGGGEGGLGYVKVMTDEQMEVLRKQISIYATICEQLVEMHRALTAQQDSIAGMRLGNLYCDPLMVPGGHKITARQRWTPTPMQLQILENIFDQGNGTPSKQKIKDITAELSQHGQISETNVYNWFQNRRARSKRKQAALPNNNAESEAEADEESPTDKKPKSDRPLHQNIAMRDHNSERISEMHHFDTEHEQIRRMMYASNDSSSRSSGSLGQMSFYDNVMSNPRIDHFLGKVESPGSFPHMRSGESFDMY
# assayMethodText: protein-binding microarray (RPBM); PBS, 2% BSA, 51.3 ng/ul salmon testes DNA, 50 uM zinc acetate, 200 nM TF, 25 C, 1 h; high values mean tight binding
# conditionNotes: protein: recombinant; tags: N-terminal polyhistidine and DsRed monomer fusion (pET32a); label: CyDye5-dUTP incorporated in the synthesized complementary strand; 3' TTTTT single-stranded linker to array surface; dsDNA, one strand shown
In all, about 35,000 sequences were measured (“fluorescence intensity (a.u.)”: median about 10,000, highest 2% from about 52,000 on). The list comes from a sample in which the highest values are over-represented; it also holds close analogues and randomly drawn sequences.
resultType: binding signal

inputSequence: GTCTTAATTGAATGCATCAATTATACTTTTGCAGGAGTTTCGGAGTCACCTAGTGCAG
target: OsWOX13 (Oryza sativa, UniProt Q5QMM3 1-267)
obsValue: 64900 fluorescence intensity (a.u.)
//
inputSequence: CACACTATTAATCATTTTGATTTTGGTATACTGCACTTTTCGGAGTCACCTAGTGCAG
target: OsWOX13 (Oryza sativa, UniProt Q5QMM3 1-267)
obsValue: 6110 fluorescence intensity (a.u.)
//
inputSequence: AATGATTGAAGGATATCCATTTGAATGATGGTATGCTTTACGGAGTCACCTAGTGCAG
target: OsWOX13 (Oryza sativa, UniProt Q5QMM3 1-267)
obsValue: 43000 fluorescence intensity (a.u.)
//
inputSequence: GTTTGTTTAGATTGGTACCATTTAAAATCATATTATTTTGCGGAGTCACCTAGTGCAG
target: OsWOX13 (Oryza sativa, UniProt Q5QMM3 1-267)
obsValue: 20600 fluorescence intensity (a.u.)
